Recorded values, source patent US20120131687A1.

Test system: nematode functionally expressing cotton aphid seizure (Aphis gossypii, UniProt A0A9P0IRJ5, DEL620-651/K982T, form not given)
Sequence (A0A9P0IRJ5 entry or part of it DEL620-651/K982T, form open): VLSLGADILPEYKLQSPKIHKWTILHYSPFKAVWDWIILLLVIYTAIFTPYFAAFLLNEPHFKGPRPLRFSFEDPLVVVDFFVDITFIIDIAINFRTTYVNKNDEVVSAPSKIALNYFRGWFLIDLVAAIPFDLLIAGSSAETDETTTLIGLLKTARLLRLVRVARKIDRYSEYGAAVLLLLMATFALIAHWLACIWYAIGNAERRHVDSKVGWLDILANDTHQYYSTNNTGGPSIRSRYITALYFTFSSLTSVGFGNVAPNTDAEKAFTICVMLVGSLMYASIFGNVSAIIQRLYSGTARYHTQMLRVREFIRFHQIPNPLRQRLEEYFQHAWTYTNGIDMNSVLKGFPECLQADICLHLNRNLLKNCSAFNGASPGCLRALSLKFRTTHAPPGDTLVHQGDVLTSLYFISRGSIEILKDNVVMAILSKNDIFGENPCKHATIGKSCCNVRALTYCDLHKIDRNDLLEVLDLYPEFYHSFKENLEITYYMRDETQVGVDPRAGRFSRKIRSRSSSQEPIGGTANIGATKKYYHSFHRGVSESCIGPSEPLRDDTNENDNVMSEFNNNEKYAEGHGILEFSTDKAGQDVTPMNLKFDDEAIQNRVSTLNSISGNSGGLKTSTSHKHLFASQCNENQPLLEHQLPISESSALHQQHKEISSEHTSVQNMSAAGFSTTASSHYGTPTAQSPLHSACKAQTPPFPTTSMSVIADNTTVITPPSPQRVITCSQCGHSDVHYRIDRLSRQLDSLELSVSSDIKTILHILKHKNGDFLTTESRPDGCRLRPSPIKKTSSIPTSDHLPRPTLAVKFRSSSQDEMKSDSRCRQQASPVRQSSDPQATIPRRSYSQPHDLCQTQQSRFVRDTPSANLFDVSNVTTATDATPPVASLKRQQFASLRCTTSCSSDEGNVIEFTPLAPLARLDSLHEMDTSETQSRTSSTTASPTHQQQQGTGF
Assay explanation: Feeding behavior activity (calcein AM intake) of recombinant nematode UG2346 functionally expressing cotton aphid seizure
Condition context: read-out: Activity to inhibit feeding behavior of nematode functionally expressing cotton aphid seizure (IC50), 0.03-100 μM
pIC50: −log10 of the molar value.

>  <Molecule>
CCCCCCC[N+](CC)(CC)CCCCc1ccc(Cl)cc1.Cc1ccc(S(=O)(=O)[O-])cc1 [clofilium]

>  <pIC50>
5.40

$$$$
